# System: CCRF-CEM leukemia
# procedure-details: NCI-60 one-dose screen, 48 h
# condition-summary: 10 µM unless noted
# Description: Growth inhibition of the CCRF-CEM human tumor cell line is measured as a screen for anti-cancer activity. Cells are grown in 96 well plates and exposed to the test compound for 48 hours. Compounds are tested at a single concentration, which is 10^-5 M for most compounds. The reported endpoint is percent growth (GI% or GIPRCNT), where numbers from 0 - 100% represent growth inhibition, and numbers from -100% - 0 represent cell death. For example, a value of 40 represents 60% growth inhibition. […]
The panel holds about 83,000 compounds, 20% with a hit somewhere; the sample as a whole holds those more often. Activity calls are given as the source filed them. The calls were made as follows: active = growth percent below 10; inactive = the rest.
Choose one outcome from this list and give only that: true for active, false for inactive

Illustrative cases are given below, each with its answer.
molecule	target-desc	assigned-category
COc1ccc(OC)c(Nc2nc3nonc3nc2Nc2cc(OC)ccc2OC)c1	CCRF-CEM leukemia	false
Fc1ccc(Nc2nc3nonc3nc2Nc2ccc(F)cc2)cc1	CCRF-CEM leukemia	false
CCCN1CCN(c2ccc3nc(-c4ccc5nc(-c6ccc(OCC)c(OCC)c6)[nH]c5c4)[nH]c3c2)CC1	CCRF-CEM leukemia	true

Hi, do you know how CN1C(=O)CCC(N2C(=O)c3cccc(NCCOCCOCCNC(=O)c4cc5c(o4)C(=O)c4ccccc4C5=O)c3C2=O)C1=O (stereo not given) came out in this test? false

Hi, do you know how Cc1ccc(NC(=O)C(Cl)Cl)cc1 came out in this test? false

Hi, do you know how Cc1cc(-c2ccccc2)cc(SC#N)[n+]1[O-] came out in this test? true

Hi, do you know how CCOC(=O)c1c2c(c(C)n1C)-c1nn(Cc3ccc(OC)cc3)cc1CC2 came out in this test? false

Hi, do you know how C=C(C)[C@@H]1CC[C@@]2(C(=O)O)CC[C@]3(C)C(CCC4[C@@]5(C)CCC(OS(=O)(=O)c6ccccc6)C(C)(C)C5CC[C@]43C)C12 (stereo not given in full) came out in this test? false

Hi, do you know how C=C(Cl)COC(=O)C(C)(C)O came out in this test? false

Hi, do you know how C=C1C(=O)O[C@H]2[C@H]1CC/C(COC(=O)/C=C\C(=O)NCc1ccc(Cn3c(=O)sn(-c4ccc(C#N)cc4)c3=O)cc1)=C\CC[C@@]1(C)O[C@@H]21 came out in this test? true

Hi, do you know how CCOC(=O)c1nnn(-c2ccccc2)c1C1=CN(C)CCC1 came out in this test? false

Hi, do you know how CCCCC1COc2cccc3c(SCC(=O)N(C)c4cccc(Cl)c4)cc[n+]1c23 (stereo not given) came out in this test? false

Hi, do you know how COc1cc(NC(=O)c2cccc(-c3cc(=O)c4c(OC)c(OC)c(OC)cc4o3)c2)cc(OC)c1OC came out in this test? false

Hi, do you know how CC(=O)Nc1nccs1 came out in this test? false

Hi, do you know how COc1cc(/C=C2\C=C(c3ccccc3)N(CCc3ccccc3)C2=O)cc(OC)c1OC came out in this test? false

Hi, do you know how C(=C\c1nc2ccccc2[nH]1)/c1nc2ccccc2[nH]1 came out in this test? false

Hi, do you know how CCCCCCN(CCCCCC)CC(O)c1cccc2ccc(Cl)cc12 (stereo not given) came out in this test? false

Hi, do you know how CCNCCNc1cc(-c2ccc(C#N)cc2)c(C#N)c2nc3ccccc3n12 came out in this test? false

Hi, do you know how COc1ccc(-c2cc(-c3ccc(Nc4nc(Nc5ccccc5)nc(Nc5ccc(Cl)cc5)n4)cc3)nc(N)c2C#N)cc1 came out in this test? true

Hi, do you know how CC(C)OCCCNCC(=O)Nc1ccc(S(=O)(=O)c2ccc(NC(=O)CNCCCOC(C)C)cc2)cc1 came out in this test? false
